molecules and their reported viability at 48 h, 10 µM
assay: in vitro; design: species or system CCD841, HEK293; settings: human, hb2 cells, read-out: HB-2 Cells Viability (%)
VALUE_TYPE: viability at 48 h, 10 µM (%)

[[record]]
compound_string = "C=CC(=O)N1CC(c2nc(C)no2)C1"
unit_annotation = "%"
readout_number = 108

[[record]]
compound_string = "C=CC(=O)NCc1ccc2c(c1)C(C)(C)C(=O)N2"
unit_annotation = "%"
readout_number = 107

[[record]]
compound_string = "CC(=O)N1CCc2cc(NC(=O)CCl)ccc21"
unit_annotation = "%"
readout_number = 33.4

[[record]]
compound_string = "C=CC(=O)Nc1ccc(C)cn1"
unit_annotation = "%"
readout_number = 96.7

[[record]]
compound_string = "CCc1nc(NC(=O)CCl)sc1C"
unit_annotation = "%"
readout_number = 61.1

[[record]]
compound_string = "Cc1cccc([N+](=O)[O-])c1NC(=O)CCl"
unit_annotation = "%"
readout_number = 85.3


====

molecular target: OTUB2 (OTUB2A) (Homo sapiens); construct: full length residues 1-234, E. coli BL21(DE3)-R3, His tag removed by TEV, construct 27312 Da; parameters: Intact protein LC/MS covalent labelling, fragments in pools of five, 200 uM each, 4 °C; conditions: 24 h, 4 °C, pool of five; 200 µM; covalent
Sequence (Q96DC9 whole entry, the tested form may be a part): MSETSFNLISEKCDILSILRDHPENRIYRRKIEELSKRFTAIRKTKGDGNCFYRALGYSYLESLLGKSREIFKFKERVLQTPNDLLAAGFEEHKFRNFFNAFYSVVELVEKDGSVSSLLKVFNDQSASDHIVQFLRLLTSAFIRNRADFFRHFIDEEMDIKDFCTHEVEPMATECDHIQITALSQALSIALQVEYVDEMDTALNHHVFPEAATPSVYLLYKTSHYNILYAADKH
VALUE_TYPE: OTUB2

[[record]]
compound = "CC(NC(=O)CCl)c1cc2ccccc2o1 (centres unmarked) [PCM-0102117]"
assay_target = "OTUB2 (OTUB2A) (Homo sapiens)"
readout_number = 0.41

[[record]]
compound = "COC(=O)c1c(NC(=O)CCl)sc2c1CCC(C)C2 (centres unmarked) [PCM-0102418]"
assay_target = "OTUB2 (OTUB2A) (Homo sapiens)"
readout_number = 0

[[record]]
compound = "Cl.O=C(CCl)N1CCN(c2ccc(O)cc2)CC1 [PCM-0102357]"
assay_target = "OTUB2 (OTUB2A) (Homo sapiens)"
readout_number = 0

[[record]]
compound = "O=C(CCl)NC(=O)Nc1ccc2c(c1)OCCCO2 [PCM-0102910]"
assay_target = "OTUB2 (OTUB2A) (Homo sapiens)"
readout_number = 0

[[record]]
compound = "C=CC(=O)N1CCC(c2nc(C(F)(F)F)cs2)CC1 [PCM-0102525]"
assay_target = "OTUB2 (OTUB2A) (Homo sapiens)"
readout_number = 0

[[record]]
compound = "O=C(CCl)Nc1cc(C(F)(F)F)ccc1N1CCOCC1 [PCM-0102741]"
assay_target = "OTUB2 (OTUB2A) (Homo sapiens)"
readout_number = 0.1

[[record]]
compound = "COC(=O)c1ccc(Cl)c(NC(=O)CCl)c1 [PCM-0102764]"
assay_target = "OTUB2 (OTUB2A) (Homo sapiens)"
readout_number = 0.29

[[record]]
compound = "O=C(CCl)NNC(=O)c1ccccc1F [PCM-0102510]"
assay_target = "OTUB2 (OTUB2A) (Homo sapiens)"
readout_number = 0.52

[[record]]
compound = "O=C(CCl)N1CCCC1c1cccs1 (centres unmarked) [PCM-0102393]"
assay_target = "OTUB2 (OTUB2A) (Homo sapiens)"
readout_number = 0

[[record]]
compound = "CC(C)C(C#N)N1CCN(C(=O)CCl)CC1 (centres unmarked) [PCM-0102263]"
assay_target = "OTUB2 (OTUB2A) (Homo sapiens)"
readout_number = 0.31

[[record]]
compound = "O=C(CCl)Nc1ccc(Cl)cc1C(=O)O [PCM-0102127]"
assay_target = "OTUB2 (OTUB2A) (Homo sapiens)"
readout_number = 0.1

[[record]]
compound = "Cc1c(Cl)cccc1NC(=O)CCl [PCM-0102130]"
assay_target = "OTUB2 (OTUB2A) (Homo sapiens)"
readout_number = 0

[[record]]
compound = "O=C(CCl)Nc1ccc(I)cc1 [PCM-0102278]"
assay_target = "OTUB2 (OTUB2A) (Homo sapiens)"
readout_number = 0.24

[[record]]
compound = "CC(C)(C)OC(=O)CNC(=O)CCl [PCM-0102981]"
assay_target = "OTUB2 (OTUB2A) (Homo sapiens)"
readout_number = 0

[[record]]
compound = "O=C(CCl)Nc1ccccc1Br [PCM-0102312]"
assay_target = "OTUB2 (OTUB2A) (Homo sapiens)"
readout_number = 0

[[record]]
compound = "Cl.O=C(CCl)N1CCN(Cc2cccc3ccccc23)CC1 [PCM-0102287]"
assay_target = "OTUB2 (OTUB2A) (Homo sapiens)"
readout_number = 0.29

[[record]]
compound = "C=CC(=O)N1CCC(n2cc(C)cn2)CC1 [PCM-0102423]"
assay_target = "OTUB2 (OTUB2A) (Homo sapiens)"
readout_number = 0.09

[[record]]
compound = "C=CC(=O)NC1CCN(c2ccccc2C(F)(F)F)C1 (centres unmarked) [PCM-0102731]"
assay_target = "OTUB2 (OTUB2A) (Homo sapiens)"
readout_number = 0

[[record]]
compound = "O=C(CCl)N1CCCCCCC1 [PCM-0102377]"
assay_target = "OTUB2 (OTUB2A) (Homo sapiens)"
readout_number = 0

[[record]]
compound = "O=C(CCl)Nc1ccnn1C1CCCC1 [PCM-0102336]"
assay_target = "OTUB2 (OTUB2A) (Homo sapiens)"
readout_number = 0.19

[[record]]
compound = "N#Cc1c(NC(=O)CCl)sc2c1CCCCC2 [PCM-0102286]"
assay_target = "OTUB2 (OTUB2A) (Homo sapiens)"
readout_number = 0

[[record]]
compound = "Cc1cc(NC(=O)CCl)on1 [PCM-0102197]"
assay_target = "OTUB2 (OTUB2A) (Homo sapiens)"
readout_number = 0

[[record]]
compound = "O=C(CCl)Nc1ccccc1N1CCCC1=O [PCM-0102375]"
assay_target = "OTUB2 (OTUB2A) (Homo sapiens)"
readout_number = 0.13


====

compounds and their reported NUDT7
biological target: NUDT7 (Homo sapiens); construct: residues 14-235, E. coli, pNIC28-Bsa4, N-terminal His6 tag removed by TEV, construct 26672 Da; set-up: Intact protein LC/MS covalent labelling, fragments in pools of five, 200 uM each, 4 °C; settings: 24 h, 4 °C, pool of five; 200 µM; covalent
VALUE_TYPE: NUDT7

[[record]]
compound = "C=CC(=O)N1Cc2ccccc2OC(C)(C)C1"
readout_number = 0

[[record]]
compound = "CC(=O)NC1CCCN(C(=O)CCl)C1 (centres unmarked)"
readout_number = 0

[[record]]
compound = "O=C(CCl)N1CCN(S(=O)(=O)c2c(F)cccc2F)CC1"
readout_number = 0

[[record]]
compound = "COc1ccccc1C(=O)NC(=O)CCl"
readout_number = 0

[[record]]
compound = "O=C(CCl)N1N=C(c2ccco2)CC1c1ccsc1 (centres unmarked)"
readout_number = 0.39

[[record]]
compound = "CC(C)(C)NC(=O)CNC(=O)CCl"
readout_number = 0

[[record]]
compound = "CS(=O)(=O)c1ccc(NC(=O)CCl)cc1"
readout_number = 0.06

[[record]]
compound = "CN(C(=O)CCl)c1nc2ccccc2s1"
readout_number = 0.34

[[record]]
compound = "O=C(CCl)NC1CS(=O)(=O)CC1Cl (centres unmarked)"
readout_number = 0.12

[[record]]
compound = "O=C(CCl)NC(=O)c1ccc(Cl)cc1"
readout_number = 0

[[record]]
compound = "C=CC(=O)NCC1CCCCC1"
readout_number = 0.05

[[record]]
compound = "O=C(CCl)NCc1cc(Br)cs1"
readout_number = 0.13

[[record]]
compound = "COC(=O)c1ccc(Cl)c(NC(=O)CCl)c1"
readout_number = 0.07

[[record]]
compound = "O=C(CCl)NCC1CCC1"
readout_number = 0

[[record]]
compound = "CC1CN(C(=O)CCl)CC(C)O1 (centres unmarked)"
readout_number = 0

[[record]]
compound = "O=C(CCl)Nc1ccc2c(c1)OC1(CCCCC1)O2"
readout_number = 0.08

[[record]]
compound = "O=C(CCl)Nc1cc(C(=O)O)ccc1Cl"
readout_number = 0

[[record]]
compound = "O=C(CCl)Nc1ccc(N2CCCCC2)nc1"
readout_number = 0.14

[[record]]
compound = "C=CC(=O)N1CCC2(CCc3ccccc3O2)C1 (centres unmarked)"
readout_number = 0

[[record]]
compound = "O=C(CCl)N1CCc2cc(S(=O)(=O)N3CCCCC3)ccc21"
readout_number = 0

[[record]]
compound = "Cl.O=C(CCl)N1CCN(c2ccccc2F)CC1"
readout_number = 0

[[record]]
compound = "C=CC(=O)Nc1cc(N)ccc1F"
readout_number = 0

[[record]]
compound = "COc1ccc(C(=O)NNC(=O)CCl)cc1"
readout_number = 0.11


====

target: NUDT7 (Homo sapiens, UniProt P0C024); construct: residues 14-235, E. coli, pNIC28-Bsa4, N-terminal His6 tag removed by TEV, construct 26672 Da; parameters: Intact protein LC/MS covalent labelling, fragments in pools of five, 200 uM each, 4 °C; conditions: 24 h, 4 °C, pool of five; 200 µM; covalent
Sequence (P0C024 14-235): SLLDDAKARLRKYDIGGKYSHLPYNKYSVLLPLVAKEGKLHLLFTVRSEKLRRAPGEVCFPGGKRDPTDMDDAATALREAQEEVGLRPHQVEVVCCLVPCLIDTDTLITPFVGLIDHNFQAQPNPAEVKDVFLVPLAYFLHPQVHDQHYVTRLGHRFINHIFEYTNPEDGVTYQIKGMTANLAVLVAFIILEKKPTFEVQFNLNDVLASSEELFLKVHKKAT
compounds and their reported NUDT7
VALUE_TYPE: NUDT7

[[record]]
compound = "O=C(CCl)N(C1CCCC1)C1CCS(=O)(=O)C1 (stereo not drawn)"
value_type = "NUDT7"
readout_number = 0.11

[[record]]
compound = "C=CC(=O)N1CC(OC(=O)NC(C)C)C1"
value_type = "NUDT7"
readout_number = 0

[[record]]
compound = "C=CC(=O)N1CCN(c2cc(C)nc(C)n2)CC1"
value_type = "NUDT7"
readout_number = 0

[[record]]
compound = "Cc1n[nH]c(C)c1NC(=O)CCl"
value_type = "NUDT7"
readout_number = 0

[[record]]
compound = "C=CC(=O)N1CCC(CS(C)(=O)=O)CC1"
value_type = "NUDT7"
readout_number = 0

[[record]]
compound = "O=C(CCl)Nc1ccc(O)cc1"
value_type = "NUDT7"
readout_number = 0


Ref: paper PMC6556873
